In this section we review reported Assay (mg/vial) values for a set of sequences.
# Experimental protocol: Peptide content (assay) of lyophilized drug product by UPLC-UV at 220 nm, method according to the invention (USP reserpine reference standard, RRF)
# Type: physicochemical
# Details: DP-5P batch, T54M, method according to the invention (USP RS)
Respond numerically; units are mg/vial and should not be typed.

Below are worked cases with known answers.
- Monomer sequence: "DKCLKFYSKISEYRHYCYSLYGTTL (Peptide 1)"
  Display unit: "mg/vial"
  Assay (mg/vial): 0.3932
- Monomer sequence: "LYCYEQLNDSSEEEDEIDGPAGQAEPDRAHYNIVT (Peptide 2)"
  Display unit: "mg/vial"
  Assay (mg/vial): 0.3932
- Monomer sequence: "RCINCQKPLCPEEKQRHLDKKQRFHNIRGRWT (Peptide 4)"
  Display unit: "mg/vial"
  Assay (mg/vial): 0.3966

Query: Given the sequence TLRLCVQSTHVDIRTLEDLLMGTLGIVCPICSQKP (Peptide 5) , what is its reported Assay (mg/vial)?
Response: 0.4021

Query: Given the sequence MHGDTPTLHEYMLDLQPETTDLYCYEQLNDSSEEE [Peptide 3] , what is its reported Assay (mg/vial)?
Response: 0.3789

---

# Experimental protocol: Peptide content (assay) of lyophilized drug product by UPLC-UV at 220 nm, conventional method (peptide as reference standard)
# Assay type: physicochemical
# Details: DP-5P batch, T0M, conventional method (peptide as RS)
Test readout: Label claim (% target 0.40 mg/vial)
Express your answer as a number followed by its unit.

Below are worked cases with known answers.
- Monomer sequence: "LYCYEQLNDSSEEEDEIDGPAGQAEPDRAHYNIVT (Peptide 2)"
  Test readout: "Label claim (% target 0.40 mg/vial)"
  Measured result: "102%"
- Monomer sequence: "RCINCQKPLCPEEKQRHLDKKQRFHNIRGRWT (Peptide 4)"
  Test readout: "Label claim (% target 0.40 mg/vial)"
  Measured result: "98%"
- Monomer sequence: "MHGDTPTLHEYMLDLQPETTDLYCYEQLNDSSEEE [Peptide 3]"
  Test readout: "Label claim (% target 0.40 mg/vial)"
  Measured result: "99%"

Query: Given the sequence DKCLKFYSKISEYRHYCYSLYGTTL (Peptide 1) , what is its reported Label claim (% target 0.40 mg/vial)?
Response: 101%

Query: Given the sequence TLRLCVQSTHVDIRTLEDLLMGTLGIVCPICSQKP (Peptide 5) , what is its reported Label claim (% target 0.40 mg/vial)?
Response: 99%

---

# Experimental protocol: Peptide content (assay) of lyophilized drug product by UPLC-UV at 220 nm, method according to the invention (USP reserpine reference standard, RRF)
# Format: physicochemical
# Details: DP-7P batch, T48M, method according to the invention (USP RS)
In this section we review reported Label claim (% target 0.40 mg/vial) values for a set of sequences.
Respond numerically; units are % and should not be typed.

- Monomer sequence: "KQQLLRREVYDFAFRDLCIVYRDGN (Peptide 8)"
  Measured result: 99
- Monomer sequence: "LPQLCTELQTTIHDIILECVYCKQQLLRREVY (Peptide 9)"
  Measured result: 98
- Monomer sequence: "RDLCIVYRDGNPYAVCDKCLKFYSKI (Peptide 11)"
  Measured result: 97
- Monomer sequence: "HYCYSLYGTTLEQQYNKPLCDLLIR (Peptide 7)"
  Measured result: 101
- Monomer sequence: "DKKQRFHNIRGRWTGRCMSCCRSSRTRRETQL (Peptide 6)"
  Measured result: 103

Query: Given the sequence MHQKRTAMFQ QERPRKLPQLCTELQTTIHD (MHQKRTAMFQQERPRKLPQLCTELQTTIHD; Peptide 10) , what is its reported Label claim (% target 0.40 mg/vial)?
Response: 101

Query: Given the sequence YGTTLEQQYNKPLCDLLIRCINCQKPLCPEEK (Peptide 12) , what is its reported Label claim (% target 0.40 mg/vial)?
Response: 103

---

# Experimental protocol: Peptide content (assay) of lyophilized drug product by UPLC-UV at 220 nm, method according to the invention (USP reserpine reference standard, RRF)
# Format: physicochemical
# Details: DP-7P batch, T48M, method according to the invention (USP RS)
Test readout: Assay (mg/vial)
Respond numerically; units are mg/vial and should not be typed.

Below are worked cases with known answers.
- Monomer sequence: "MHQKRTAMFQ QERPRKLPQLCTELQTTIHD (MHQKRTAMFQQERPRKLPQLCTELQTTIHD; Peptide 10)"
  Display unit: "mg/vial"
  Measured result: 0.4060
- Monomer sequence: "HYCYSLYGTTLEQQYNKPLCDLLIR (Peptide 7)"
  Display unit: "mg/vial"
  Measured result: 0.4036
- Monomer sequence: "YGTTLEQQYNKPLCDLLIRCINCQKPLCPEEK (Peptide 12)"
  Display unit: "mg/vial"
  Measured result: 0.4132
- Monomer sequence: "LPQLCTELQTTIHDIILECVYCKQQLLRREVY (Peptide 9)"
  Display unit: "mg/vial"
  Measured result: 0.3901

Query: Given the sequence KQQLLRREVYDFAFRDLCIVYRDGN (Peptide 8) , what is its reported Assay (mg/vial)?
Response: 0.3980

Query: Given the sequence DKKQRFHNIRGRWTGRCMSCCRSSRTRRETQL (Peptide 6) , what is its reported Assay (mg/vial)?
Response: 0.4100

Query: Given the sequence RDLCIVYRDGNPYAVCDKCLKFYSKI (Peptide 11) , what is its reported Assay (mg/vial)?
Response: 0.3866

---

# Experimental protocol: Peptide content (assay) of lyophilized drug product by UPLC-UV at 220 nm, method according to the invention (USP reserpine reference standard, RRF)
# Format: physicochemical
# Details: DP-7P batch, T54M, method according to the invention (USP RS)
In this section we review reported Assay (mg/vial) values for a set of sequences.
Respond numerically; units are mg/vial and should not be typed.

Below are worked cases with known answers.
- Monomer sequence: "HYCYSLYGTTLEQQYNKPLCDLLIR (Peptide 7)"
  Measured result: 0.3980
- Monomer sequence: "KQQLLRREVYDFAFRDLCIVYRDGN (Peptide 8)"
  Measured result: 0.3928

Query: Given the sequence DKKQRFHNIRGRWTGRCMSCCRSSRTRRETQL (Peptide 6) , what is its reported Assay (mg/vial)?
Response: 0.4033
